Attribute: log10(EC50)
Biological target: CFTR ΔF508 mutant (Homo sapiens, UniProt P13569, DEL508-508)
Construct: expressed in transfected cells; host or cells: CFBE41o- (adenoviral transduction)
Sequence (P13569 with tags, fused parts or gaps DEL508-508): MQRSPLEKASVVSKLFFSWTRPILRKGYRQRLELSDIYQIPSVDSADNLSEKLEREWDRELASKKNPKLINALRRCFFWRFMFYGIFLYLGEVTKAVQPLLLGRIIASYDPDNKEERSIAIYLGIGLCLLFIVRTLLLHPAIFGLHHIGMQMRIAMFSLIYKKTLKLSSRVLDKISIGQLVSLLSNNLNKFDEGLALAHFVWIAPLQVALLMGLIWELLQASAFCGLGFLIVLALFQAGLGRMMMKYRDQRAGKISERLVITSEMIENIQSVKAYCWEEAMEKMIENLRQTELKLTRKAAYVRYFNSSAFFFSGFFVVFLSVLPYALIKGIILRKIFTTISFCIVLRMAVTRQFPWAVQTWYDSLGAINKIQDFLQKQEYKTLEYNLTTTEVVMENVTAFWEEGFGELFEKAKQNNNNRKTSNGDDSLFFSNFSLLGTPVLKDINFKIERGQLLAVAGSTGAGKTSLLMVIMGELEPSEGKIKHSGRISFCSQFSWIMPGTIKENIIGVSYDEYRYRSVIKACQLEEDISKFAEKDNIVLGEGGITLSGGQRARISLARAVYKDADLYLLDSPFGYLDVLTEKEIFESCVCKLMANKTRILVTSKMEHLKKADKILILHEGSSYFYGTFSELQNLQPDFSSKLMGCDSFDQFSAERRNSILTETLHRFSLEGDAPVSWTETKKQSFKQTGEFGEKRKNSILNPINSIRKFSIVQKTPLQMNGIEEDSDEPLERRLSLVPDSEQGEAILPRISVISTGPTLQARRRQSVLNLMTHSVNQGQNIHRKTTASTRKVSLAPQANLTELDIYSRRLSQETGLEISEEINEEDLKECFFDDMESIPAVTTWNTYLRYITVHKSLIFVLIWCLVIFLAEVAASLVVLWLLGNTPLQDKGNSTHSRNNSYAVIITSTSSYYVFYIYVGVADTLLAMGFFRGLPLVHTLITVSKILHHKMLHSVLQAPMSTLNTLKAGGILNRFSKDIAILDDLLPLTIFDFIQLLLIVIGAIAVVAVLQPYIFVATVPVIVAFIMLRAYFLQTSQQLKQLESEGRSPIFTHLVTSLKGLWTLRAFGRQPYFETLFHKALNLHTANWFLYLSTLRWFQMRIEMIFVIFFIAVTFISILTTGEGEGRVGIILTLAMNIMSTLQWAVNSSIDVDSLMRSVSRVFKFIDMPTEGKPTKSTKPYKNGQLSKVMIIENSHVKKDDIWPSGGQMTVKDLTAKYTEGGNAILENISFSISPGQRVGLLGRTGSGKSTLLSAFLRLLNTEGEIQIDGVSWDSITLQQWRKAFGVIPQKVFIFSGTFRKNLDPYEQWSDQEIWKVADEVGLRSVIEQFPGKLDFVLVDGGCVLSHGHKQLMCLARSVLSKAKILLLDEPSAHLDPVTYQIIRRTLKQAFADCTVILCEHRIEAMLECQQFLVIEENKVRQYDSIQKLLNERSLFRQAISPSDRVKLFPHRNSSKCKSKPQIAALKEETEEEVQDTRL
Assay: YFP-halide influx assay for the CFTR-ΔF508 mutation (96 well, CFBE41o- cells)
Type: cell-based
Conditions: compounds of the invention, 96 well, forskolin 10.67 μM, read-out: EC50 measured by YFP-halide influx assay for the CFTR-ΔF508
recorded endpoint: log10(EC50) (log10 of the value in nM)

>  <compound>
Cc1cn[nH]c1C(=O)Nc1sc2c(c1C(N)=O)CC(C)(C)OC2(C)C [Compound 35]

>  <system>
CFTR ΔF508 mutant (Homo sapiens, UniProt P13569, DEL508-508)

>  <log10(EC50)>
0.48

$$$$
>  <compound>
CC1(C)Cc2c(sc(NC(=O)c3ccccc3O)c2C(N)=O)C(C)(C)O1 [Compound 3]

>  <system>
CFTR ΔF508 mutant (Homo sapiens, UniProt P13569, DEL508-508)

>  <log10(EC50)>
0.64

$$$$
>  <compound>
CC1(C)Cc2c(sc(NC(=O)c3ccccc3F)c2C(N)=O)C(C)(C)O1 [Compound 1]

>  <system>
CFTR ΔF508 mutant (Homo sapiens, UniProt P13569, DEL508-508)

>  <log10(EC50)>
1.09

$$$$
>  <compound>
CC1(C)Cc2c(sc(NC(=O)c3cccnc3O)c2C(N)=O)C(C)(C)O1 [Compound 23]

>  <system>
CFTR ΔF508 mutant (Homo sapiens, UniProt P13569, DEL508-508)

>  <log10(EC50)>
2.01

$$$$
>  <compound>
CC1(C)Cc2c(sc(NC(=O)c3ccc(F)cc3O)c2C(N)=O)C(C)(C)O1 [Compound 21]

>  <system>
CFTR ΔF508 mutant (Homo sapiens, UniProt P13569, DEL508-508)

>  <log10(EC50)>
0.81

$$$$
>  <compound>
Cc1[nH]nc(C(=O)Nc2sc3c(c2C(N)=O)CC(C)(C)OC3(C)C)c1Cl [Compound 34]

>  <system>
CFTR ΔF508 mutant (Homo sapiens, UniProt P13569, DEL508-508)

>  <log10(EC50)>
1.00

$$$$
>  <compound>
CC1(C)Cc2c(sc(NC(=O)c3[nH]ncc3Cl)c2C(N)=O)C(C)(C)O1 [Compound 25]

>  <system>
CFTR ΔF508 mutant (Homo sapiens, UniProt P13569, DEL508-508)

>  <log10(EC50)>
0.62

$$$$
>  <compound>
CC(C)c1cc(C(=O)Nc2sc3c(c2C(N)=O)CC(C)(C)OC3(C)C)n[nH]1 [Compound 14]

>  <system>
CFTR ΔF508 mutant (Homo sapiens, UniProt P13569, DEL508-508)

>  <log10(EC50)>
1.51

$$$$
